Assay: Quantitative high throughput screen for delayed death inhibitors of the malarial parasite plastid, 96 hour incubation (AID 488745); further: nearly all actives have a fitted effect of over 70% in size
Settings: Plasmodium falciparum growth; series mostly up to 28.7 µM
Records with an inconclusive call do not appear. Active and inactive are the calls of the source. The call rests on the fitted dose curve; in most records, active means well fitted inhibition curve with a large enough effect; inconclusive means small, poorly fitted or top-dose-only effect, or effect the other way; inactive means no such curve, though single readings can be large or run the other way.
Respond with a class label; see 1 (yes) for active, 0 (no) for inactive

N[C@@H](Cn1oc(=O)[nH]c1=O)C(=O)O :: 0 (no)
Cc1sc2ccccc2c1CC1=NCCN1 :: 0 (no)
C[N+](C)(C)CC#CCN1CCCC1=O :: 0 (no)

As a next step, examine the molecule that follows.
Q. What did this assay record as the result for "CNc1ccc2oc(C[C@H]3O[C@@]4(CC[C@H]3C)O[C@H]([C@H](C)C(=O)c3ccc[nH]3)[C@H](C)C[C@H]4C)nc2c1C(=O)O" ?
A. 1 (yes)

---

Tested on: KB-3-1
Assay: Cytotoxic Profiling of Annotated Libraries Using Quantitative High-Throughput Screening (AID 1296008); further: on the % scale 0 is the no-effect control and ±100 the full control effect; nearly all actives have a fitted effect of over 60% in size
Details: Five cell lines viability, CellTiter-Glo ATP luminescence, 48-72 h; stronger effect = lower value
Description: Cell-based phenotypic screening is a commonly used approach to discover biological pathways, novel drug targets, chemical probes and high-quality hit-to-lead molecules. […] A pintool (Kalypsys) was used to transfer 23 nL of compound solution to the 1536-well assay plates. […] Plates were left at room temperature for 10 min before imaging the ATP-coupled luminescence using a ViewLux microplate imager (PerkinElmer, Waltham, MA).
Records with an inconclusive call do not appear.
metric: max response (%)
Quick note: give the figure in %, leave out the unit.

CCNCC(O)c1cccc(O)c1 (centres undefined) :: 6.6
CC(=O)[C@H]1CC[C@H]2[C@@H]3CC[C@@H]4C[C@H](O)CC[C@]4(C)[C@H]3CC[C@]12C :: 4.77
CC(C)C1(OO)C=C2C(=O)CC3C(C)(C(=O)O)CCCC3(C)C2CC1 (centres undefined) :: 7.41
CCOc1ccc2c3c1O[C@H]1[C@@H](O)C=C[C@H]4[C@@H](C2)N(C)CC[C@@]341 :: -8.27
O=C1CCCCC1CN1CCCCC1 (centres undefined) :: 4.12
CCCCNCC(O)c1ccc(O)cc1 (centres undefined) :: 13.7
O=S(=O)(O)c1cc(O)ccc1O :: 6.29
C[C@H]1CC[C@]2(NC1)O[C@H]1C[C@H]3[C@@H]4CC[C@H]5C[C@@H](O)CC[C@]5(C)[C@H]4CC[C@]3(C)[C@H]1[C@@H]2C :: -2.2

Q. Hello, please tell me recorded max response for this one: "O=C1CN=C(c2ccccc2)c2cc(Cl)ccc2N1CC1CC1"
A. 1.41

Q. Hello, please tell me recorded max response for this one: "NCC[C@H](O)C(=O)N[C@@H]1C[C@H](N)[C@@H](O[C@H]2O[C@H](CN)[C@@H](O)[C@H](O)[C@H]2N)[C@H](O[C@@H]2O[C@H](CO)[C@@H](O)[C@H]2O)[C@H]1O"
A. 11

Q. Hello, please tell me recorded max response for this one: Cc1cccc(C(C)c2cnc[nH]2)c1C (centres undefined)
A. 8.09

Q. Hello, please tell me recorded max response for this one: "CN(C)[C@@H]1C(=O)C(C(N)=O)=C(O)[C@@]2(O)C(=O)C3=C(O)c4c(O)ccc(Cl)c4[C@@](C)(O)[C@H]3C[C@@H]12"
A. 2.99

Q. Hello, please tell me recorded max response for this one: "CN[C@H]1[C@H](O)[C@H](O[C@@H]2[C@@H](O)[C@H](O[C@H]3O[C@H]([C@H](C)O)[C@@H](O)[C@H](O)[C@H]3N)[C@@H](N)C[C@H]2N)OC[C@@]1(C)O"
A. 3.55

Q. Hello, please tell me recorded max response for this one: "O=P(O)(O)C(Cl)(Cl)P(=O)(O)O"
A. -7.13

Q. Hello, please tell me recorded max response for this one: "COC(=O)N1CCN(C(=O)Cc2ccc(Cl)c(Cl)c2)[C@@H](CN2CCCC2)C1"
A. -3.66

Q. Hello, please tell me recorded max response for this one: C=C1[C@@H]2CC[C@@]3(C)[C@H](c4ccoc4)OC(=O)C[C@]13O[C@H]1CC(=O)C(C)(C)[C@H](C(OC(C)=O)C(=O)OC)[C@]12C (some centres undefined)
A. -6.59

Q. Hello, please tell me recorded max response for this one: "CCC/C=C/C=C/C(=O)O[C@H]1/C(=C/C(=O)OC)C[C@H]2C[C@H]([C@@H](C)O)OC(=O)C[C@H](O)C[C@@H]3C[C@H](OC(C)=O)C(C)(C)[C@](O)(C[C@@H]4C/C(=C/C(=O)OC)C[C@H](/C=C/C(C)(C)[C@]1(O)O2)O4)O3"
A. 0.184

Q. Hello, please tell me recorded max response for this one: "CC(C)CCON=O"
A. 10.4

Q. Hello, please tell me recorded max response for this one: CN1C(=O)c2ccccc2NC(=O)C1Cc1ccccc1 (centres undefined)
A. 3.82
